Source of measurements: patent US10941158B2

Provide the recorded IC90 for the entries that follow.
# System: Botrtyis cinerea (Bc)
# test: Growth inhibition assay of fungal pathogens
# Type: cell-based
# conditionNotes: 48 h, Table 4b, read-out: Concentration at 90% Inhibition Bc
Answers are plain numbers, in µg/mL.

Provide IC90 values for the following items, in order.
1. COc1ccc(F)cc1[C@H](Cn1c(=O)n(C(C)(C)C(=O)NC(C)C)c(=O)c2c(C)c(-n3cccn3)sc21)OCC(C)(C)O
2. COc1ccc(F)cc1[C@H](Cn1c(=O)n(C(C)(C)C(=O)N2CCCC2)c(=O)c2c(C)c(-n3cccn3)sc21)OC1CCOCC1
3. COc1ccccc1[C@H](Cn1c(=O)n(C(C)(C)C(=O)NC(C)C)c(=O)c2c(C)c(-n3cccn3)sc21)OC1CCOCC1

2
2
10
